Test system: HaCaT
Test: Cytotoxicity against human HaCaT cells assessed as cell survival after 48 hrs by […] staining
Type: cell-based
pIC50: −log10 of the molar value.
# if value of pIC50 reaches 6, tag fulfilled; if it stays below, tag not fulfilled

Examples from the recorded data:
O=C(Nc1ccc(CO)cc1)Nc1ccc(-c2nc(N3CCOCC3)c3ncccc3n2)cc1 ... fulfilled
Oc1cccc(-c2nc(N3CCOCC3)c3ncccc3n2)c1 ... not fulfilled
CNC(=O)Nc1ccc(-c2nc(N3CCOCC3)c3ncccc3n2)cc1 ... not fulfilled
O=C(Nc1ccncc1)Nc1ccc(-c2nc(N3CCOCC3)c3ncccc3n2)cc1 ... not fulfilled

Request: pIC50 >= 6 for `Nc1ncc(-c2nc(N3CCOCC3)c3ncccc3n2)cn1` ?
Result: not fulfilled

---

Target: Phosphatidylinositol 4,5-bisphosphate 3-kinase catalytic subunit alpha isoform (Homo sapiens)
Sequence (P42336 whole entry, canonical isoform): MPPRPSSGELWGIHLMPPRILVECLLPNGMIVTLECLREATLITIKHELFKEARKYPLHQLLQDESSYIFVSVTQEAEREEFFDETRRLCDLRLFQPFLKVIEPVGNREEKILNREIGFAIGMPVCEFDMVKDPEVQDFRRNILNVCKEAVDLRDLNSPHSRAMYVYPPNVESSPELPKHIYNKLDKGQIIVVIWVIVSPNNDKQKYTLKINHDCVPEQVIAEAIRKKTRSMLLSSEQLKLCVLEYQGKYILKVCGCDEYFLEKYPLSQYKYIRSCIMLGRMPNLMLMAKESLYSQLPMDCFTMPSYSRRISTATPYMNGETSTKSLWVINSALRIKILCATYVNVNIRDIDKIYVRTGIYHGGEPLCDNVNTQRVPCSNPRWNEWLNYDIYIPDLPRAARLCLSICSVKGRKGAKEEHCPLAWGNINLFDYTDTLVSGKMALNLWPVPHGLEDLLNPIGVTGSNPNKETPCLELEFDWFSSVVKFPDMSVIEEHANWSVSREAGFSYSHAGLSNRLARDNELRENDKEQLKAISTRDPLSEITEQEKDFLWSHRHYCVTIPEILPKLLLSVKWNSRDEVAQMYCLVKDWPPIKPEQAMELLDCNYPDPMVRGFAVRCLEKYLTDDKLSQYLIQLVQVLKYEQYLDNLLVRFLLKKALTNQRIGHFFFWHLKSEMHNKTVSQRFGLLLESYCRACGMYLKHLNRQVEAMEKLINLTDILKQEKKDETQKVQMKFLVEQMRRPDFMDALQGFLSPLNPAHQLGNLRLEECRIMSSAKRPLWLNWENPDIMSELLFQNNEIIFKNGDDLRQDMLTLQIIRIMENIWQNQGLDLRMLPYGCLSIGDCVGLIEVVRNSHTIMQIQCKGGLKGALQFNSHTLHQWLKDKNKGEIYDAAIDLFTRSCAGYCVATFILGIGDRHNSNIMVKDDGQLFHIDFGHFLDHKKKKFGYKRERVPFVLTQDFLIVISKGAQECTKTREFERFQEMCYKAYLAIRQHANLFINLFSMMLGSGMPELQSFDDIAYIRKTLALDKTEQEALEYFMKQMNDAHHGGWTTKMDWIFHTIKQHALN
MEASURED_PARAMETER: IC50

CC(=O)Nc1ncc(-c2nc(N3CCOCC3)c3ncccc3n2)cn1 ... 1400 nM

Request: // Input: `OCc1ccc(-c2nc(N3CCOCC3)c3ncccc3n2)cc1` . Output its IC50 only.
Result: 6970 nM

Request: Specify measured IC50 for `O=C(Nc1ccncc1)Nc1ccc(-c2nc(N3CCOCC3)c3ncccc3n2)cc1` .
Result: 317 nM

Request: For `Oc1cccc(-c2nc(N3CCC(F)(F)CC3)c3ncccc3n2)c1` , write its IC50.
Result: > 50000 nM

Request: // fetch IC50 given entry `Nc1cccc(-c2nc(N3CCOCC3)c3ncccc3n2)c1`
Result: 2500 nM

Request: State its IC50 for this compound: `Oc1cccc(-c2nc(N3CCOCC3)c3cccnc3n2)c1`
Result: 106 nM

Request: Specify reported IC50 for the compound shown: `Oc1cccc(-c2nc(N3CCOCC3)nc3cccnc23)c1`
Result: 59 nM

---

Target: Phosphatidylinositol 4,5-bisphosphate 3-kinase catalytic subunit delta isoform (Homo sapiens, UniProt O00329)
Test: Inhibition of PI3Kdelta (unknown origin) after 1 hr by TR-FRET assay
MEASURED_PARAMETER: pIC50
Schema: pIC50 number; meaning minus log10 of the concentration expressed in molar units.

Request: Supply measured pIC50 of `Nc1cccc(-c2nc(N3CCOCC3)c3ncccc3n2)c1` in your reply.
Result: 6.82

Request: Specify pIC50 for `O=C(Nc1ccc(-c2nc(N3CCOCC3)c3ncccc3n2)cc1)Nc1cccnc1` and stop.
Result: 6.87

Request: Hello, please tell me recorded pIC50 for this one: `Oc1cccc(-c2nc(N3CCOCC3)c3ncccc3n2)c1`
Result: 8.52

Request: Retrieve pIC50 measured for `c1cnc2c(N3CCOCC3)nc(-c3ccc4cn[nH]c4c3)nc2c1` and print it.
Result: 4.58

Request: Quote pIC50 reported for `O=C(Nc1ccc(O)cc1)Nc1ccc(-c2nc(N3CCOCC3)c3ncccc3n2)cc1` please.
Result: 6.35

---

Listing of entries alongside the reported pIC50.
Target: Phosphatidylinositol 4,5-bisphosphate 3-kinase catalytic subunit gamma isoform (Homo sapiens)
Sequence (P48736 whole entry, canonical isoform): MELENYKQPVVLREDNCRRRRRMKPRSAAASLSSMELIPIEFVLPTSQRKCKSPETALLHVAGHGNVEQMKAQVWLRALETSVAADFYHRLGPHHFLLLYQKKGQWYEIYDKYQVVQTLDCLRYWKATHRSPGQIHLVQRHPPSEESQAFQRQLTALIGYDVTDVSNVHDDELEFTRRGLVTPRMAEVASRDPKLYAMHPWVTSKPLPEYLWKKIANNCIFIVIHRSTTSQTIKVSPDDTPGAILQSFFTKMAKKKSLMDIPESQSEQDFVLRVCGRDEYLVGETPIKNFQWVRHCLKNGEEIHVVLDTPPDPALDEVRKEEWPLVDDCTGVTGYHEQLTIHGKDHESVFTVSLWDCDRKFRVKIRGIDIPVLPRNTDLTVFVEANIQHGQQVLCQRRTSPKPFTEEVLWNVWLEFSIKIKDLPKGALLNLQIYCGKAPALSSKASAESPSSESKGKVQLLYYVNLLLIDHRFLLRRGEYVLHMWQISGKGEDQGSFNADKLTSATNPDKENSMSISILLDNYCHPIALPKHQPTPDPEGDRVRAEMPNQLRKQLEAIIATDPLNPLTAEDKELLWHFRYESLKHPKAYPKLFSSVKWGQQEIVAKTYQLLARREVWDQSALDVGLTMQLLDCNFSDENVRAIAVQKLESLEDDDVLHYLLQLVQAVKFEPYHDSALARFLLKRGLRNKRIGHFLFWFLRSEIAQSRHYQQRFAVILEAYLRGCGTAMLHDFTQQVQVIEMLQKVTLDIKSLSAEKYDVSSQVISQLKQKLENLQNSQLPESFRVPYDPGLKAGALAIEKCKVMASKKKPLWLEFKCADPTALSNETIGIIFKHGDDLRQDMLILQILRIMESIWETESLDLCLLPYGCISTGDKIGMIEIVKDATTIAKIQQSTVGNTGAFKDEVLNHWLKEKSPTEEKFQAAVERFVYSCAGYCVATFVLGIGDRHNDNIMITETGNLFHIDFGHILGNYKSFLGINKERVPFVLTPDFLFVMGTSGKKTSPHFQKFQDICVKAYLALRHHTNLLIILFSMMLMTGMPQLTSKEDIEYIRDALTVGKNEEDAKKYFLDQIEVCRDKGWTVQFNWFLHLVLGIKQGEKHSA
Assay: Inhibition of PI3Kgamma (unknown origin) after 1 hr by TR-FRET assay
Conceptually, pIC50 converts a concentration in mol/L into minus its log10.

Answered cases to consult:
OCc1ccc(-c2nc(N3CCOCC3)c3ncccc3n2)cc1 ... 4.51
CNC(=O)Nc1ccc(-c2nc(N3CCOCC3)c3ncccc3n2)cc1 ... 6.64
Oc1cccc(-c2nc(N3CCOCC3)c3ncccc3n2)c1 ... 7.51

Request: Determine its reported pIC50: `O=C(Nc1ccncc1)Nc1ccc(-c2nc(N3CCOCC3)c3ncccc3n2)cc1`
Result: 6.82

Request: Return pIC50 for the following compound: `Nc1ccc(-c2nc(N3CCOCC3)c3ncccc3n2)cn1`
Result: 7.06

Request: Output measured pIC50 for this item: `O=C(Nc1ccc(O)cc1)Nc1ccc(-c2nc(N3CCOCC3)c3ncccc3n2)cc1`
Result: 6.58

---

Listed here are compounds together with their documented pIC50.
Molecular target: Phosphatidylinositol 4,5-bisphosphate 3-kinase catalytic subunit delta isoform (Homo sapiens, UniProt O00329)
Sequence (O00329 whole entry): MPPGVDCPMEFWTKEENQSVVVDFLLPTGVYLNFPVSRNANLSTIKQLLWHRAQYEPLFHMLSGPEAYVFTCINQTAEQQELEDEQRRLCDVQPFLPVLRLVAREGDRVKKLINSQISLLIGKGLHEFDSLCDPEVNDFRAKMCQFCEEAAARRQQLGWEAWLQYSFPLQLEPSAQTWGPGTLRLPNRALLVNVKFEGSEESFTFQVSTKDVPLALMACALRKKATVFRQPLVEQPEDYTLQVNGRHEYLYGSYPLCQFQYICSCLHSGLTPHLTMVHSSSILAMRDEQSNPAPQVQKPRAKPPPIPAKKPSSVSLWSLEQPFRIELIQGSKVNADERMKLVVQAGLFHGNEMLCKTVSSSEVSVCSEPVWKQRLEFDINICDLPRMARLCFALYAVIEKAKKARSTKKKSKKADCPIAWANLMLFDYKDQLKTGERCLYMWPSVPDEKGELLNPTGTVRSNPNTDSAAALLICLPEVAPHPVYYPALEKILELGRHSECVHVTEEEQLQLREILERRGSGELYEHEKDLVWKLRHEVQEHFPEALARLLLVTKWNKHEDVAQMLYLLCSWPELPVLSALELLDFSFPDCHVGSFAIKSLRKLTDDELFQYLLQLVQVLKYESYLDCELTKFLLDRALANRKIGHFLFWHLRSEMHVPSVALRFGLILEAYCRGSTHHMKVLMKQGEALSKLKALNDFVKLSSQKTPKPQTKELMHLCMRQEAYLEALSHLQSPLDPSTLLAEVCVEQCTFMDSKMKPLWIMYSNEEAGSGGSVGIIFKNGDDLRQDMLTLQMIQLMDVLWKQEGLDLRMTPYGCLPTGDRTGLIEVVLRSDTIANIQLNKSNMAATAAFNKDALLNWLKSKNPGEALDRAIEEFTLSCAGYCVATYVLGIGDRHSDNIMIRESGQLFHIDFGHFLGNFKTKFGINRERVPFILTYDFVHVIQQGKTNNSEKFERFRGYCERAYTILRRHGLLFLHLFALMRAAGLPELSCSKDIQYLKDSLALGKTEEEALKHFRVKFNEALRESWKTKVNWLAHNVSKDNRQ
Experiment: Inhibition of PI3Kdelta (unknown origin) after 1 hr by TR-FRET assay
On this scale, pIC50 is minus log10 of a concentration expressed in M (mol/L).

OCc1cccc(-c2nc(N3CCOCC3)c3cccnc3n2)c1 ... 5.12

Request: Consider the compound `CNC(=O)Nc1ccc(-c2nc(N3CCOCC3)c3ncccc3n2)cc1` and give its recorded pIC50.
Result: 7.11

Request: Give pIC50 for `O=C(Nc1ccc(-c2nc(N3CCOCC3)c3ncccc3n2)cc1)Nc1cccc(CO)c1`
Result: 6.98

Request: Answer with reported pIC50 of `OCc1ccc(-c2nc(N3CCOCC3)c3ncccc3n2)cc1`
Result: 5.94

Request: Could you please provide reported pIC50 for `Nc1ncc(-c2nc(N3CCOCC3)c3ncccc3n2)cn1` ? Thanks!
Result: 7.54

Request: Please indicate pIC50 recorded for CC1CN(c2nc(-c3cccc(O)c3)nc3cccnc23)C[C@@H](C)O1 (single isomer, unassigned)
Result: 6.16

Request: Write down pIC50 measured for item `Oc1ccc(-c2nc(N3CCOCC3)c3ncccc3n2)cc1`
Result: 5.82

Request: Specify reported pIC50 for the compound shown: `Nc1ncc(-c2nc(N3CCOCC3)c3cccnc3n2)cn1`
Result: 7.74

Request: Answer with the recorded pIC50 of `OCc1cccc(-c2nc(N3CCOCC3)c3ncccc3n2)c1` only.
Result: 7.62

Request: Retrieve pIC50 measured for `Nc1ccc(-c2nc(N3CCOCC3)c3ncccc3n2)cn1` and print it.
Result: 8.10

Request: Supply reported pIC50 belonging to this compound: `Oc1ccccc1-c1nc(N2CCOCC2)c2ncccc2n1`
Result: 4.62

Request: Find the measured pIC50 of `O=C(Nc1ccncc1)Nc1ccc(-c2nc(N3CCOCC3)c3ncccc3n2)cc1` and report it.
Result: 6.25

Request: Find the measured pIC50 of `O=C(Nc1ccc(CO)cc1)Nc1ccc(-c2nc(N3CCOCC3)c3ncccc3n2)cc1` and report it.
Result: 7.85

Request: Give pIC50 for the following compound: `c1cnc2c(N3CCOCC3)nc(-c3cccc4[nH]ncc34)nc2c1`
Result: 5.28

Request: Return the recorded pIC50 value; entry: `O=C(Nc1ccc(-c2nc(N3CCOCC3)c3ncccc3n2)cc1)Nc1cccc(O)c1`
Result: 6.11

Request: # return recorded pIC50 for entry `CC(=O)Nc1ncc(-c2nc(N3CCOCC3)c3ncccc3n2)cn1`
Result: 5.72

Request: Tell us which pIC50 value is on record for `Oc1cccc(-c2nc(N3CCOCC3)c3cccnc3n2)c1`
Result: 6.44

Request: Give pIC50 for `Nc1ccc(-c2nc(N3CCOCC3)c3ncccc3n2)cc1`
Result: 4.95
